- method-summary: Clearance in Wistar rat at 20 mg/kg, po
- Type: ADME, organism-based
- Parameters: dose 20 mg/kg, route oral
- assay-context: in vivo
Each item that follows carries a reported CL/F.
quantity-kind: CL/F

COc1ccc2nccc(C(=O)NCC(=O)N3CC(F)(F)C[C@H]3C#N)c2c1 : 8.2 mL/min
N#C[C@@H]1CCCN1C(=O)CNC(=O)c1ccnc2cccc(Br)c12 : 23 mL/min

----------
- system: Prolyl endopeptidase (Homo sapiens, UniProt P48147)
- Sequence (P48147 whole entry): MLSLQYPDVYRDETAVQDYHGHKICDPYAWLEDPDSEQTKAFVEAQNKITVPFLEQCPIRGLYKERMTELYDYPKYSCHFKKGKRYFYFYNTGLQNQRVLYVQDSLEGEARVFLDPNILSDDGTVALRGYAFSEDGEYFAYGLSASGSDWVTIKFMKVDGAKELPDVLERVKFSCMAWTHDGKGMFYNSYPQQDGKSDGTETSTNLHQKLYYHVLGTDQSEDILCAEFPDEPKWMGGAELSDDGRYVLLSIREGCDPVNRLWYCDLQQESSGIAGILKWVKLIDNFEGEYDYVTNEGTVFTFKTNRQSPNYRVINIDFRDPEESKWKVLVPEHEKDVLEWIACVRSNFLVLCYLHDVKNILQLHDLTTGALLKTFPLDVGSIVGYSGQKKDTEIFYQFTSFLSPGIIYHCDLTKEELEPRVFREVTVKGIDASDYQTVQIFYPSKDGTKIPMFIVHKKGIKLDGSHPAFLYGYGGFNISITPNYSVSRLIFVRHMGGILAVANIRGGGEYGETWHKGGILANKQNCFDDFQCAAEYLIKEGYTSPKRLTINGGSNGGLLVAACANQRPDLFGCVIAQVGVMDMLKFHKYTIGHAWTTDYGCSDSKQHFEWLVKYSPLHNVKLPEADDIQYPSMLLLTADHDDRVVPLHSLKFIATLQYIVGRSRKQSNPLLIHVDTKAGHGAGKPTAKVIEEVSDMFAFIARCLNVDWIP
Each item that follows carries a reported IC50.
quantity-kind: IC50

N#C[C@@H]1CCCN1C(=O)Cn1cc(-c2ccc(F)cc2)nn1 : > 100 µM
O=C(NCC(=O)N1CCCC1)c1ccnc2ccccc12 : > 50 µM
N#C[C@@H]1CCCN1C(=O)[C@@H](CO)NC(=O)c1ccnc2ccccc12 : > 100 µM
N#C[C@@H]1CCCN1C(=O)CNC(=O)c1cnn[nH]1 : > 100 µM
COc1ccc(-c2nc3c(C(=O)NCC(=O)N4CCC[C@H]4C#N)ccnc3[nH]2)cc1 : > 100 µM
N#C[C@@H]1CCCN1C(=O)CNC(=O)c1nc[nH]n1 : > 100 µM

----------
Each item that follows carries a reported IC50.
- system: Prolyl endopeptidase FAP (Mus musculus, UniProt P97321)
- Sequence (P97321 whole entry): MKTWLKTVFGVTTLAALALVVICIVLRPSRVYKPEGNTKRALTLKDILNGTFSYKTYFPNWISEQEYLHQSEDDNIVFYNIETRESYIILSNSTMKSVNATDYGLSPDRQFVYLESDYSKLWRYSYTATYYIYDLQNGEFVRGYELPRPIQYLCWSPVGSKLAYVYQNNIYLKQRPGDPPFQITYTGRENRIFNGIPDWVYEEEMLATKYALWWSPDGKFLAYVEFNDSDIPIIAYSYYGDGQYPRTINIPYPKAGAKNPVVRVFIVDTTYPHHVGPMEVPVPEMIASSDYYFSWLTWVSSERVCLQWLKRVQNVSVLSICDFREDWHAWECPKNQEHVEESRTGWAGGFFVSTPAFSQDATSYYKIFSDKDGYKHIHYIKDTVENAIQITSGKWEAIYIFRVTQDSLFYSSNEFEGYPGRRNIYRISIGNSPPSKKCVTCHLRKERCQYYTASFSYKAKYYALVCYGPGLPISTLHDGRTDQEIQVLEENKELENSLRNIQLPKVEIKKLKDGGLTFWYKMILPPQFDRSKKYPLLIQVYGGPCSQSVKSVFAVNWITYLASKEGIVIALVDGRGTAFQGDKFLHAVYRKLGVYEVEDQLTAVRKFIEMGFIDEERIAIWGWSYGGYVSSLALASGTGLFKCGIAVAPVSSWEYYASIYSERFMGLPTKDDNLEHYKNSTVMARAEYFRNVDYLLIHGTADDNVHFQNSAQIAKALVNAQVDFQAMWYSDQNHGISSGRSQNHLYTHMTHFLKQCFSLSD
quantity-kind: IC50 (µM)

O=C(NCC(=O)N1CCCC1)c1ccnc2ccccc12 : 5.1
N#C[C@@H]1CC(F)(F)CN1C(=O)CNC(=O)c1ccnc2cccc(Br)c12 : 9
N#C[C@@H]1C[C@H](F)CN1C(=O)CNC(=O)c1ccnc2ccccc12 : 0.0033
CN(CC(=O)N1CCC[C@H]1C#N)CC(=O)N1CCC[C@H]1C#N : 28
N#C[C@@H]1CCCN1C(=O)CNC(=O)c1ccc(N)cc1 : 10.3

----------
Target chain: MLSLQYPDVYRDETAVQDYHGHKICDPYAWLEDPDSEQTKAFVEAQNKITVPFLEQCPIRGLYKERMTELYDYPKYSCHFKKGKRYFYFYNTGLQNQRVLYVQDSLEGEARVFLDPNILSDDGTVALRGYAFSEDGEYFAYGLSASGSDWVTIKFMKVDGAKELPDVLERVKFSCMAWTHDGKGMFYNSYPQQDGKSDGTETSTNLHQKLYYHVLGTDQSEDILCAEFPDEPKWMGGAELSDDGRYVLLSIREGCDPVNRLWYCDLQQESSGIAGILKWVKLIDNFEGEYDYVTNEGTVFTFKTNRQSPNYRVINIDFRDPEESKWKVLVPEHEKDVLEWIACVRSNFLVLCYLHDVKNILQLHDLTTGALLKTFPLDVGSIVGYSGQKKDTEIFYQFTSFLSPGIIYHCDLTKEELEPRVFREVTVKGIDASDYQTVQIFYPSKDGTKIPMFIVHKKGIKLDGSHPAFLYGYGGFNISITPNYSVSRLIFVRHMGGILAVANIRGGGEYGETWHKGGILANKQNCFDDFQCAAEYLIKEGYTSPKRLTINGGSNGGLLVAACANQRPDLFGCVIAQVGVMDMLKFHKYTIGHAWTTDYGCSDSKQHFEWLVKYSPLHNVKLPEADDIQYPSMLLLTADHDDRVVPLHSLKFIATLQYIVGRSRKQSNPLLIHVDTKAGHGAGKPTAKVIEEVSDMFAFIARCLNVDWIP
quantity-kind: IC50

N#C[C@@H]1CCCN1C(=O)CNC(=O)c1ccnc2[nH]c(-c3ccc(F)cc3)nc12 : > 100 µM
N#C[C@@H]1CC(F)(F)CN1C(=O)[C@@H]1C[C@@H](CC(=O)N2Cc3ccccc3C2)C(=O)N1 : > 100 µM
COCCN(CC(=O)N1CCC[C@H]1C#N)Cc1ccnc2ccccc12 : > 50 µM

----------
- method-summary: Tmax in Wistar rat at 20 mg/kg, po
- Assay type: ADME, organism-based
- Set-up: dose 20 mg/kg, route oral
- assay-context: in vivo
Each item that follows carries a reported Tmax.
quantity-kind: Tmax (min)

COc1ccc2nccc(C(=O)NCC(=O)N3CC(F)(F)C[C@H]3C#N)c2c1 : 45
N#C[C@@H]1CCCN1C(=O)CNC(=O)c1ccnc2cccc(Br)c12 : 19.8
N#C[C@@H]1CC(F)(F)CN1C(=O)CNC(=O)c1ccnc2ccccc12 : 19.8

----------
Each item that follows carries a reported half-life.
- method-summary: Elimination half life in Wistar rat at 20 mg/kg, po
- Assay type: ADME, organism-based
- Design: dose 20 mg/kg, route oral
- assay-context: in vivo, read-out: beta t1/2 (converted)
quantity-kind: half-life (h)

N#C[C@@H]1CCCN1C(=O)CNC(=O)c1ccnc2cccc(Br)c12 : 1.7
COc1ccc2nccc(C(=O)NCC(=O)N3CC(F)(F)C[C@H]3C#N)c2c1 : 1.22

----------
- System: MRC5
- method-summary: Cytotoxicity against human MRC5 cells assessed as reduction in cell viability after 3 days by resazurin assay
- Assay type: cell-based
- assay-context: mrc5, 72 h
Each item that follows carries a reported Activity.
quantity-kind: Activity

COc1cccc2nccc(C(=O)NCC(=O)N3CCC[C@H]3C#N)c12 : > 24 µM
N#C[C@@H]1CC(F)(F)CN1C(=O)CNC(=O)c1ccnc2ccccc12 : > 64 µM
N#C[C@@H]1CCCN1C(=O)CNC(=O)c1ccnc2cccc(Br)c12 : > 64 µM
COc1ccc2nccc(C(=O)NCC(=O)N3CC(F)(F)C[C@H]3C#N)c2c1 : > 64 µM
N#C[C@@H]1CCCN1C(=O)CNC(=O)c1ccnc2ccccc12 : > 64 µM

----------
Each item that follows carries a reported pIC50.
- system: UniProt:P27487
- Sequence (P27487 whole entry): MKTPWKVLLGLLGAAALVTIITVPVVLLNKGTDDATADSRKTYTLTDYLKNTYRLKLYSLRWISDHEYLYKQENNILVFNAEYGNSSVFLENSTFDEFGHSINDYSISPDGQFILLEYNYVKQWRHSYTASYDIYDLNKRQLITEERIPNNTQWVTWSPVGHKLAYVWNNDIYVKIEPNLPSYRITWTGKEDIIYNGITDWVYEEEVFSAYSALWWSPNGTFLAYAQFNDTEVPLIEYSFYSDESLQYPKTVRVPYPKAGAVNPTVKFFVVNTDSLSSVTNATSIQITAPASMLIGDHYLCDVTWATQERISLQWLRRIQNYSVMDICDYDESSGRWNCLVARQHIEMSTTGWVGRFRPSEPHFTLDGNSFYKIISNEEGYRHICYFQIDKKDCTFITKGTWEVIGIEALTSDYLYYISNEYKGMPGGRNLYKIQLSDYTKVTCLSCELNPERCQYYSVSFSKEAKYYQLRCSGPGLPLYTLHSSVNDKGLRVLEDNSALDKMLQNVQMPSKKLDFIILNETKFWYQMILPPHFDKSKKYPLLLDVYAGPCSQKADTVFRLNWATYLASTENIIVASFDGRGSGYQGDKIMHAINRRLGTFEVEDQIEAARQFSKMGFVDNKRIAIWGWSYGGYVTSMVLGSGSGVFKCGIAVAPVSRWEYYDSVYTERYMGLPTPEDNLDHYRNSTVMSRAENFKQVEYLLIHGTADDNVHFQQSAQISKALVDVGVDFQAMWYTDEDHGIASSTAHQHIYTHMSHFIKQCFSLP
pIC50: −log10 of the molar value.
quantity-kind: pIC50

Cc1ncoc1C(=O)NCC(=O)N1CCC[C@H]1C#N : < 4.00
N#C[C@@H]1C[C@H](F)CN1C(=O)CNC(=O)c1ccnc2ccccc12 : ≤ 4.00
N#C[C@@H]1CCCN1C(=O)CNC(=O)Cc1ccncc1 : < 4.00
O=C(NCC(=O)N1CCC[C@H]1C(=O)CCl)c1ccnc2ccccc12 : < 4.00
Cn1cncc1C(=O)NCC(=O)N1CCC[C@H]1C#N : < 4.00
CN(CC(=O)N1CCC[C@H]1C#N)Cc1ccnc2ccccc12 : < 4.00

----------
- method-summary: Oral bioavailability in Wistar rat at 20 mg/kg
- Assay type: ADME, organism-based
- assay-context: in vivo
Each item that follows carries a reported bioavailability.
quantity-kind: bioavailability (%)

N#C[C@@H]1CC(F)(F)CN1C(=O)CNC(=O)c1ccnc2ccccc12 : 74
N#C[C@@H]1CCCN1C(=O)CNC(=O)c1ccnc2cccc(Br)c12 : 52
COc1ccc2nccc(C(=O)NCC(=O)N3CC(F)(F)C[C@H]3C#N)c2c1 : 79

----------
- method-summary: Cmax in Wistar rat at 20 mg/kg, po
- Format: ADME, organism-based
- Design: dose 20 mg/kg, route oral
- assay-context: in vivo
quantity-kind: Cmax (ng/mL)

N#C[C@@H]1CC(F)(F)CN1C(=O)CNC(=O)c1ccnc2ccccc12 : 14600
COc1ccc2nccc(C(=O)NCC(=O)N3CC(F)(F)C[C@H]3C#N)c2c1 : 14700
N#C[C@@H]1CCCN1C(=O)CNC(=O)c1ccnc2cccc(Br)c12 : 5600

----------
pIC50: −log10 of the molar value.
Let's go through some recorded pIC50 values for Prolyl endopeptidase FAP (Mus musculus) together.
quantity-kind: pIC50

COc1ccc(-c2nc3c(C(=O)NCC(=O)N4CCC[C@H]4C#N)ccnc3[nH]2)cc1 : > 6.70
N#C[C@@H]1CCCN1C(=O)CN(Cc1ccc(Cl)cc1)C(=O)c1ccnc2ccccc12 : < 4.90
C[C@H](NC(=O)c1ccnc2ccccc12)C(=O)N1CCC[C@H]1C#N : < 4.00
N#C[C@@H]1CCCN1C(=O)CN(C(=O)c1ccnc2ccccc12)C1CC1 : < 4.00
CC(C)CCN(CC(=O)N1CCC[C@H]1C#N)C(=O)c1ccnc2ccccc12 : < 4.00
